test: Clinical pharmacokinetics of Compound 1 monotherapy, Phase 1/2, advanced malignancies; type: in vivo, human; conditions: human, plasma, oral, 16 mg, 16 mg QD, cycle 1 day 1, N = 7; read-out: Cmax, mean ± SD
reported endpoint: Cmax

Any idea what Cmax was measured for CN1C(=O)C(C)(C)Oc2c(-c3cn(C)c(=O)c4[nH]ccc34)cc(S(C)(=O)=O)cc21 [Compound 1] ?
343 nM

###

experiment: Treatment-emergent adverse events and exposure-safety analysis, Compound 1 monotherapy; assay type: in vivo, human; conditions: human, plasma, oral, 12 mg, participant 1011, Grade 4 gastrointestinal hemorrhage, 12 mg QD; read-out: AUCss,0-24 of individual participant
reported endpoint: AUC
Write the quantity with the unit trailing the number.

Returns the measured AUC for the input molecule. Input: CN1C(=O)C(C)(C)Oc2c(-c3cn(C)c(=O)c4[nH]ccc34)cc(S(C)(=O)=O)cc21
3.47 µM·h

###

experiment: Clinical pharmacokinetics of Compound 1 monotherapy, Phase 1/2, advanced malignancies; type: in vivo, human; conditions: human, plasma, oral, 8 mg, 8 mg QD, cycle 1 day 1, N = 12; read-out: AUClast, mean ± SD
reported endpoint: AUC(0-t) (µM·h)
One number for each entry, in µM·h.

Which AUC(0-t) is listed for CN1C(=O)C(C)(C)Oc2c(-c3cn(C)c(=O)c4[nH]ccc34)cc(S(C)(=O)=O)cc21 ?
2.31

###

Experiment: Clinical pharmacokinetics of Compound 1 monotherapy, Phase 1/2, advanced malignancies
Type: in vivo, human
Conditions: human, plasma, oral, 16 mg, 16 mg QD, cycle 1 day 1, N = 7; read-out: AUClast, mean ± SD
Procedure: The clinical PK of Compound 1 in participants with advanced malignancies (solid and hematologic malignancies) were evaluated in a Phase 1/2, open-label, dose-escalation/dose-expansion, safety and tolerability study. Participants received continuous QD doses of Compound 1. As of the data cutoff date (23 Sep. 2019), 25, 101, and 8 participants who received 8 mg, 12 mg, and 16 mg, respectively, across Part 1 and Part 2 (Compound 1 treated as monotherapy) have been assessed for PK. […]
reported endpoint: AUC(0-t) (µM·h)
Give bare numbers, in µM·h.

Which AUC(0-t) value belongs to CN1C(=O)C(C)(C)Oc2c(-c3cn(C)c(=O)c4[nH]ccc34)cc(S(C)(=O)=O)cc21 [Compound 1] ?
3.37

###

experiment: Clinical pharmacokinetics of Compound 1 monotherapy, Phase 1/2, advanced malignancies; assay type: in vivo, human; details: human, plasma, oral, 12 mg, 12 mg QD; read-out: steady-state AUC0-24, geometric mean
reported endpoint: AUC(0-t) (µM·h)
Numbers only, in µM·h.

AUC(0-t) for CN1C(=O)C(C)(C)Oc2c(-c3cn(C)c(=O)c4[nH]ccc34)cc(S(C)(=O)=O)cc21 ?
2.74

###

experiment: Treatment-emergent adverse events and exposure-safety analysis, Compound 1 monotherapy; type: in vivo, human; conditions: human, plasma, oral, 12 mg, participant 9002, Grade 4 gastrointestinal hemorrhage, 12 mg QD; read-out: AUCss,0-24 of individual participant
reported endpoint: AUC
The reply must contain the numeric value and, after it, the unit.

Name the recorded AUC for CN1C(=O)C(C)(C)Oc2c(-c3cn(C)c(=O)c4[nH]ccc34)cc(S(C)(=O)=O)cc21 [Compound 1] .
3.61 µM·h

###

assay: Clinical pharmacokinetics of Compound 1 monotherapy, Phase 1/2, advanced malignancies; type: in vivo, human; settings: human, plasma, oral, 8 mg, 8 mg QD, cycle 1 day 1, N = 12; read-out: Cmax, geometric mean (CV %)
reported endpoint: Cmax (nM)
Give bare numbers, in nM.

Reported Cmax for CN1C(=O)C(C)(C)Oc2c(-c3cn(C)c(=O)c4[nH]ccc34)cc(S(C)(=O)=O)cc21 : what is it?
188

###

assay: Clinical pharmacokinetics of Compound 1 monotherapy, Phase 1/2, advanced malignancies; assay type: in vivo, human; conditions: human, plasma, oral; 12 mg QD, steady-state; read-out: t1/2, geometric mean (converted)
reported endpoint: half-life (h)
One number for each entry, in h.

Fill blank: measured half-life of the compound CN1C(=O)C(C)(C)Oc2c(-c3cn(C)c(=O)c4[nH]ccc34)cc(S(C)(=O)=O)cc21 is ____.
9.17

###

assay: Treatment-emergent adverse events and exposure-safety analysis, Compound 1 monotherapy; format: in vivo, human; conditions: FIG. 8, monotherapy 8-16 mg QD
reported endpoint: AUCss,0-24, third quartile (µM·h)
Answers are plain numbers, in µM·h.

Please look up its AUCss,0-24, third quartile: CN1C(=O)C(C)(C)Oc2c(-c3cn(C)c(=O)c4[nH]ccc34)cc(S(C)(=O)=O)cc21
2.62

###

Assay: Clinical pharmacokinetics of Compound 1 monotherapy, Phase 1/2, advanced malignancies
Format: in vivo, human
Conditions: human, plasma, oral, 12 mg, 12 mg QD, cycle 1 day 1, N = 99; read-out: Cmax, geometric mean (CV %)
Protocol: The clinical PK of Compound 1 in participants with advanced malignancies (solid and hematologic malignancies) were evaluated in a Phase 1/2, open-label, dose-escalation/dose-expansion, safety and tolerability study. Participants received continuous QD doses of Compound 1. As of the data cutoff date (23 Sep. 2019), 25, 101, and 8 participants who received 8 mg, 12 mg, and 16 mg, respectively, across Part 1 and Part 2 (Compound 1 treated as monotherapy) have been assessed for PK. […]
reported endpoint: Cmax (nM)
Give bare numbers, in nM.

Fill in the blank: the reported Cmax of CN1C(=O)C(C)(C)Oc2c(-c3cn(C)c(=O)c4[nH]ccc34)cc(S(C)(=O)=O)cc21 is ____.
249
